Listed compounds paired with reported pEC50
molecular target: ligand binding domain of human FXR (Homo sapiens (Human), UniProt Q96RI1); assay: FXR ligand binding assay (LanthaScreen TR-FRET, SRC2-2 peptide recruitment); conditions: -log EC50, concentration required to produce 50% activation
Sequence (Q96RI1 262-486): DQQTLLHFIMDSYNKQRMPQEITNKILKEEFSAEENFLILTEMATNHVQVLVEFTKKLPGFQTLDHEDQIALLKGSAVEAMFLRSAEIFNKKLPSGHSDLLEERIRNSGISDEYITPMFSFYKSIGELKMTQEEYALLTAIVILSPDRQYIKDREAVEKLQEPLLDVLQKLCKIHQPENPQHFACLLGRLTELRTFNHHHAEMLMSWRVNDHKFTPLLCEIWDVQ
I'd appreciate a reply containing only the number, no unit.

Examples from the recorded data:
Compound: O=C(O)c1cc(F)c(N2C[C@@H]3C[C@H]2C[C@H]3OCc2c(-c3c(Cl)cccc3Cl)noc2C2CC2)cc1F [Compound I-105]
pEC50: 9.4
--
Compound: O=C1OCc2cc(N3C[C@@H]4C[C@H]3C[C@H]4OCc3c(-c4c(Cl)cccc4Cl)noc3C3CC3)ccc21 [Compound I-141]
pEC50: 7
--
Compound: O=C(NS(=O)(=O)C1CCOCC1)c1ccc(N2C(=O)[C@@H]3C[C@H]2C[C@H]3OCc2c(-c3c(Cl)cccc3Cl)noc2C2CC2)cc1 [Compound I-338]
pEC50: 8.9
--
Compound: O=C(O)c1cc(C2CC2)c2nc(N3C[C@@H]4C[C@H]3C[C@H]4OCc3c(-c4c(Cl)cccc4Cl)noc3C3CC3)sc2c1 [Compound I-14]
pEC50: 8.6
--
Compound: Cc1cc(C(=O)O)ccc1N1C[C@@H]2C[C@H]1C[C@H]2OCc1c(-c2c(Cl)cccc2Cl)noc1C1CC1 [Compound I-107]
pEC50: 8.6
--
Compound: Cc1cccc(Cl)c1-c1noc(C2CC2)c1CO[C@@H]1C[C@@H]2C[C@H]1CN2c1ccc(C(=O)NS(=O)(=O)C2CCOCC2)cc1 [Compound I-203]
pEC50: 9

Cc1cccc(Cl)c1-c1noc(C2CC2)c1CO[C@@H]1C[C@@H]2C[C@H]1CN2c1nc2c(C)cc(C(=O)O)cc2s1 [Compound I-269] on ligand binding domain of human FXR (Homo sapiens (Human), UniProt Q96RI1) gives pEC50 = 8.5

COC(=O)c1cc(F)c2nc(N3C[C@@H]4C[C@H]3C[C@@H]4OCc3c(-c4c(Cl)cccc4Cl)noc3C3CC3)sc2c1 [Compound I-36] on ligand binding domain of human FXR (Homo sapiens (Human), UniProt Q96RI1) gives pEC50 = 5.4

CCCS(=O)(=O)NC(=O)c1cc(F)c2nc(N3C[C@@H]4C[C@H]3C[C@H]4OCc3c(-c4c(Cl)cccc4Cl)noc3C3CC3)sc2c1 [Compound I-29] on ligand binding domain of human FXR (Homo sapiens (Human), UniProt Q96RI1) gives pEC50 = 7.8

COc1cccc(-c2noc(C3CC3)c2CO[C@@H]2C[C@@H]3C[C@H]2CN3c2nc3c(F)cc(C(=O)O)cc3s2)c1 [Compound I-289] on ligand binding domain of human FXR (Homo sapiens (Human), UniProt Q96RI1) gives pEC50 = 6.9

====

Target: human Farnesoid X receptor ligand-binding domain/Gal4 DNA binding domain chimera (Homo sapiens (Human))
Sequence (Q96RI1 262-486, change not shown): as the sequence (Q96RI1 262-486) above
Sequence (P04386 1-147 partner): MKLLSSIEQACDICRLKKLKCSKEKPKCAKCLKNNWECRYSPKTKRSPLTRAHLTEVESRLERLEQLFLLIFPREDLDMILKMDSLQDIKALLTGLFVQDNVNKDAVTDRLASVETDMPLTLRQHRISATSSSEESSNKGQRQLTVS
Experiment: Cell-based assay of FXR activation (FXR-UAS-bla HEK 293T beta-lactamase reporter)
Conditions: extent of activation relative to GW4064; cellular FXR beta-lactamase reporter assay
Procedure: FXR activation was measured using a cell line and procedure obtained from Life Technologies (Cat # K1691). FXR-UAS-bla HEK 293T cells contain a human Farnesoid X receptor ligand-binding domain/Gal4 DNA binding domain chimera stably integrated into the CellSensor® UAS-bla HEK 293T cell line. […] Activation of FXR by bound ligands results in transcriptional activation of the beta-lactamase reporter gene, which is detected via assay of beta-lactamase activity. […]
Metric: % Efficacy (%)
Provide the reading as a plain figure in %.

Examples from the recorded data:
Compound: O=C(O)c1cc([C@H]2C[C@H]3CC[C@@H](C2)O3)c2nc(N3C[C@@H]4C[C@H]3C[C@H]4OCc3c(-c4c(Cl)cccc4Cl)noc3C3CC3)sc2c1 [Compound I-255]
% Efficacy [%]: 104
//
Compound: O=C(O)c1cc([C@@H]2C[C@H]3CC[C@@H](C2)O3)c2nc(N3C[C@@H]4C[C@H]3C[C@H]4OCc3c(-c4c(Cl)cccc4Cl)noc3C3CC3)sc2c1 [Compound I-256]
% Efficacy [%]: 107
//
Compound: O=C(NS(=O)(=O)[C@H]1CC[C@@H](O)CC1)c1ccc(N2C[C@@H]3C[C@H]2C[C@H]3OCc2c(-c3c(Cl)cccc3Cl)noc2C2CC2)cc1 [Compound I-220]
% Efficacy [%]: 108
//
Compound: O=C(NS(=O)(=O)[C@H]1CC[C@H](O)CC1)c1ccc(N2C[C@@H]3C[C@H]2C[C@H]3OCc2c(-c3c(Cl)cccc3Cl)noc2C2CC2)cc1 [Compound I-221]
% Efficacy [%]: 108

Now consider the entry below.
get_value(item= O=C(NS(=O)(=O)C1CC1)c1ccc(N2C[C@@H]3C[C@H]2C[C@H]3OCc2c(-c3ccccc3C(F)(F)F)noc2C2CC2)c(F)c1 [Compound I-202] , readout=% Efficacy) returns 114
